- ASSAY REMARKS: 14-day oral gavage toxicokinetic study in rats
- Assay type: in vivo
- ASSAY CONDITIONS: male, rat, plasma, po, 15 mg/kg, Mean Compound 1 Plasma Concentration, rats, oral 15 mg/kg, Day 1, 1 h, Male
MEASURED ENDPOINT: concentration at 1 h (ng/mL)

SMILES	MEASURED ENDPOINT	READING UNIT	ASSAY RESULT
CN1CCN(c2ccc(Nc3ncc4cc5n(c4n3)C3(CCCCC3)CNC5=O)nc2)CC1	concentration at 1 h	ng/mL	810

###

- ASSAY REMARKS: 14-day oral gavage toxicokinetic study in rats
- Assay type: in vivo
- ASSAY CONDITIONS: female, rat, plasma, po, 30 mg/kg, Individual Compound 1 Plasma Concentration, rats, daily oral 30 mg/kg, Day 1, Female, 0.5 h

COMPOUND	concentration at 0.5 h
CN1CCN(c2ccc(Nc3ncc4cc5n(c4n3)C3(CCCCC3)CNC5=O)nc2)CC1 [Compound 1]	2030 ng/mL
